Tested on: M. mycetomatis genome strain MM55
Assay: CLSI M38-A2 based in vitro susceptibility screening (XTT or resazurin), growth at fixed concentration
Assay type: cell-based, Madurella mycetomatis
Conditions: Madurella mycetomatis, 25 uM, replicate C, M. mycetomatis MM55; read-out: Percentage survival at 25um, 25 uM C
Provide the recorded activity at 25 µM for the entries that follow.
Note: unit % is implicit; provide only the numeric part.

Query block: Reported activity at 25 µM for Fc1ccc(-n2cc(Cn3c(-c4cccc(F)c4)nc4ccccc43)nn2)cc1 : what is it?
Result block: 71.7

Query block: What about NC(=O)c1cnc2ccc(S(=O)(=O)c3ccccc3)cc2c1Nc1ccc(O)cc1 ?
Result block: 71.3

Query block: What about O=[N+]([O-])c1ccc2c(CCc3c[nH]c4ccccc34)c[nH]c2c1 ?
Result block: 2.7

Query block: What about O=C(Nc1ccc(Cl)c(C(F)(F)F)c1)C(CCCl)C(=O)Nc1ccc(Cl)c(C(F)(F)F)c1 ?
Result block: 56.9

Query block: What about Fc1ccc(-c2nc(-c3c[nH]c4ccc(Br)cc34)[nH]c2-c2ccc(F)cc2)cc1 ?
Result block: 126

Query block: What about NC(=O)[C@@H]1CC[C@@H]2CN1C(=O)N2OS(=O)(=O)O ?
Result block: 83.7

Query block: What about Nc1nnnn1CCOc1c2[nH]c3ccc(Cl)cc3c2cc2c1[nH]c1ccc(Cl)cc12 ?
Result block: 3.74

Query block: What about CCCCCCCc1[nH]c2ccccc2c(=O)c1O ?
Result block: 71.9

Query block: What about NC(=O)c1ccccc1NC(=O)c1ccc(C(=O)Nc2ccccc2C(N)=O)cc1 ?
Result block: 80.3

Query block: What about CCC(C)(C)c1ccc(CC(C)CN2C[C@@H](C)O[C@@H](C)C2)cc1 (stereo partly drawn) [MMV1634358, Amorolfine, reference compound] ?
Result block: 2.57

Query block: What about CC(C)=CCC/C(C)=C/CNCCNC1C2CC3CC(C2)CC1C3 (stereo not drawn) ?
Result block: 0.619

Query block: What about CCc1nc2ccccn2c1C(=O)NCc1ccccc1 ?
Result block: 64.8

Query block: What about COc1cc(Cc2cnc(N)nc2N)cc(OC)c1OC ?
Result block: 71.8

Query block: What about COc1ccc(C)cc1NC(=O)c1ccc(S(=O)(=O)N2CCCCC2)cc1 ?
Result block: 57.3

Query block: What about CCNC(=O)Nc1cc2c(-c3ccnc(C)c3)ccc(CNC(=O)OC)c2cn1 ?
Result block: 79.2

Query block: What about N=C(N)c1ccc(COc2ccc(Cl)cc2)cc1 ?
Result block: 76.5

Query block: What about NCCCc1ccccc1C(=O)Nc1ncc([N+](=O)O)s1 ?
Result block: 80.1

Query block: What about CC1CN(c2ncnc3c2c(-c2ccccc2)cn3-c2ccc(F)cc2)CC(C)O1 (stereo not drawn) ?
Result block: 56.2

---

Provide the recorded activity at 25 µM for the entries that follow.
System: M. mycetomatis genome strain MM55
Assay: CLSI M38-A2 based in vitro susceptibility screening (XTT or resazurin), growth at fixed concentration
Assay type: cell-based, Madurella mycetomatis
Details: Madurella mycetomatis, 25 uM, replicate A; read-out: Percentage survival at 25um, 25 um A
Note: unit % is implicit; provide only the numeric part.

Query block: Lab request: please report activity at 25 µM under test system M. mycetomatis genome strain MM55 for O=C(N[C@H](CCS)C(=O)N[C@H](Cc1ccccc1)C(=O)O)c1cc2ccccc2[nH]1 [MMV1581557]
Result block: 88.1

Query block: What about CN(C)CCNC(=O)c1cccc2cccnc12 [MMV811071] ?
Result block: 90.3

Query block: What about COc1cc(C2C3=C(CC(C)(C)CC3=O)Nc3ccccc3N2C(C)=O)ccc1OCc1ccccc1 (stereo not drawn) [MMV1634557] ?
Result block: 90.5

Query block: What about CCOc1ccc(/C=N/NC(=O)C2CC2c2ccc(C(C)(C)C)cc2)cc1OCC (stereo not drawn) [MMV1634398] ?
Result block: 88.3

Query block: What about CCN(CC)S(=O)(=O)c1ccc(Cl)c(C(=O)Nc2sc3c(c2C#N)CCCC3)c1 [MMV1634384] ?
Result block: 87.9

Query block: What about O=C(N[C@H](Cc1cccc2ccccc12)C(=O)NCCc1c[nH]cn1)C1Cc2ccccc2C1 [MMV1782109] ?
Result block: 88.1
